Origin of measurements: paper PMC10463010

assay: In vitro hydrolysis / chemical stability in buffers; format: physicochemical; conditions: 0.1 M HCl (simulated gastric conditions), pH 1.4
recorded_endpoint: half-life at 75 μM

Data request: Look at this molecule and give its reported half-life at 75 μM. Cn1c(=O)c2c(ncn2CC(=O)N/N=C2/C(=O)Nc3ccccc32)n(C)c1=O
Data returned: 1.8 h

---

experiment: Cytotoxic effect on RAW 264.7 using MTT assay; assay type: cell-based; settings: mouse, RAW 264.7 cells
Response field label: string, one of Satisfied (viability at 24 h, 50 µM strictly below 90%) or Not satisfied.

Consider the following illustrative entries.
Cn1c(=O)c2c(ncn2CC(=O)N/N=C/c2ccc3c(c2)OCO3)n(C)c1=O [18h] :: Not satisfied
COc1ccc(/C=N/NC(=O)Cn2cnc3c2c(=O)n(C)c(=O)n3C)cc1O [18i] :: Not satisfied
Cn1c(=O)c2c(ncn2CC(=O)O)n(C)c1=O [compound 2, theophylline-7-acetic acid, reference compound] :: Satisfied
COc1ccc(/C=N/NC(=O)Cn2cnc3c2c(=O)n(C)c(=O)n3C)cc1 [18l] :: Not satisfied
Cn1c(=O)c2c(ncn2CC(=O)N/N=C/c2ccc(O)cc2)n(C)c1=O [18b] :: Satisfied

Data request: Does Cn1c(=O)c2c(ncn2CC(=O)N/N=C/c2ccccc2)n(C)c1=O [18a] have viability at 24 h, 50 µM strictly under 90%?
Data returned: Not satisfied

Data request: Does Cc1ccc(C(C)C)c(OC(=O)Cn2cc(COC(=O)Cn3cnc4c3c(=O)n(C)c(=O)n4C)nn2)c1 [15b] have viability at 24 h, 50 µM strictly under 90%?
Data returned: Not satisfied

---

test system: NO production in RAW264.7 stimulated by LPS; assay: NO production in LPS-stimulated RAW 264.7; format: cell-based; conditions: Mus musculus, RAW264.7, read-out: % inhibition of NO production
Mark yes (1) for reported inhibition at 25 µM of 80% or greater; mark no (0) for anything smaller.

Consider the following illustrative entries.
Cn1c(=O)c2c(ncn2CC(=O)O)n(C)c1=O [compound 2, theophylline-7-acetic acid, reference compound] :: no (0)
COc1ccc(OC)c(/C=N/NC(=O)Cn2cnc3c2c(=O)n(C)c(=O)n3C)c1 [18c] :: no (0)
COc1cc(/C=N/NC(=O)Cn2cnc3c2c(=O)n(C)c(=O)n3C)ccc1O [18j] :: yes (1)

Data request: hey, is inhibition at 25 µM for this one >= 80%? COc1ccc(/C=N/NC(=O)Cn2cnc3c2c(=O)n(C)c(=O)n3C)cc1O [18i]
Data returned: no (0)

Data request: hey, is inhibition at 25 µM for this one >= 80%? Cn1c(=O)c2c(ncn2CC(=O)N/N=C2/C(=O)Nc3ccccc32)n(C)c1=O [compound 19]
Data returned: yes (1)

Data request: hey, is inhibition at 25 µM for this one >= 80%? Cn1c(=O)c2c(ncn2CC(=O)N/N=C/c2ccccc2O)n(C)c1=O [18g]
Data returned: no (0)

Data request: hey, is inhibition at 25 µM for this one >= 80%? Cn1c(=O)c2c(ncn2CC(=O)N/N=C/c2ccccc2)n(C)c1=O [18a]
Data returned: no (0)

Data request: hey, is inhibition at 25 µM for this one >= 80%? COc1ccc(/C=N/NC(=O)Cn2cnc3c2c(=O)n(C)c(=O)n3C)cc1 [18l]
Data returned: yes (1)

Data request: hey, is inhibition at 25 µM for this one >= 80%? Cc1ccc(C(C)C)c(OC(=O)Cn2cc(COC(=O)Cn3cnc4c3c(=O)n(C)c(=O)n4C)nn2)c1 [15b]
Data returned: no (0)

---

Quick reference: viability at 24 h, 50 µM of the listed items.
assay: Cytotoxic effect on RAW 264.7 using MTT assay; assay type: cell-based; conditions: mouse, RAW 264.7 cells
State the answer as a number, implicitly in %.

Below, 5 compounds whose answers are already recorded.
COc1cc(/C=N/NC(=O)Cn2cnc3c2c(=O)n(C)c(=O)n3C)ccc1O [18j] :: 89
Cn1c(=O)c2c(ncn2CC(=O)N/N=C2/C(=O)Nc3ccccc32)n(C)c1=O [compound 19] :: 89.5
Cn1c(=O)c2c(ncn2CC(=O)OCc2cn(-c3cc(=O)oc4ccccc34)nn2)n(C)c1=O [15c] :: 88
COc1ccc(OC)c(/C=N/NC(=O)Cn2cnc3c2c(=O)n(C)c(=O)n3C)c1 [18c] :: 88
COc1ccc(/C=N/NC(=O)Cn2cnc3c2c(=O)n(C)c(=O)n3C)cc1OC [18d] :: 90

Data request: Look at this compound and give its reported viability at 24 h, 50 µM. COc1cc(/C=N/NC(=O)Cn2cnc3c2c(=O)n(C)c(=O)n3C)cc(OC)c1OC [18e]
Data returned: 92

Data request: Look at this compound and give its reported viability at 24 h, 50 µM. Cn1c(=O)c2c(ncn2CC(=O)N/N=C/c2ccccc2O)n(C)c1=O [18g]
Data returned: 92

Data request: Look at this compound and give its reported viability at 24 h, 50 µM. COc1cccc(/C=N/NC(=O)Cn2cnc3c2c(=O)n(C)c(=O)n3C)c1 [18f]
Data returned: 91

---

system: NO production in RAW264.7 stimulated by LPS; test: NO production in LPS-stimulated RAW 264.7; type: cell-based; conditions: Mus musculus, RAW264.7, read-out: % inhibition of NO production
recorded_endpoint: inhibition at 25 µM

Below, 3 compounds whose answers are already recorded.
COc1cccc(/C=N/NC(=O)Cn2cnc3c2c(=O)n(C)c(=O)n3C)c1 [18f] :: 63.2%
COc1cc(/C=N/NC(=O)Cn2cnc3c2c(=O)n(C)c(=O)n3C)cc(OC)c1OC [18e] :: 71.8%
COc1ccc(/C=N/NC(=O)Cn2cnc3c2c(=O)n(C)c(=O)n3C)cc1OC [18d] :: 70.7%

Data request: Kindly state the measured inhibition at 25 µM obtained for Cn1c(=O)c2c(ncn2CC(=O)N/N=C/c2ccc3c(c2)OCO3)n(C)c1=O [18h] with NO production in RAW264.7 stimulated by LPS.
Data returned: 96.6%

Data request: Kindly state the measured inhibition at 25 µM obtained for Cn1c(=O)c2c(ncn2CC(=O)N/N=C/c2ccc(O)cc2)n(C)c1=O [18b] with NO production in RAW264.7 stimulated by LPS.
Data returned: 71.8%

Data request: Kindly state the measured inhibition at 25 µM obtained for Cn1c(=O)c2c(ncn2CC(=O)OCc2cn(-c3cc(=O)oc4ccccc34)nn2)n(C)c1=O [15c] with NO production in RAW264.7 stimulated by LPS.
Data returned: 85%
